All figures here come from paper PMC9297786.

Target: ephrin type‐B receptor 4 (EPHB4) (Homo sapiens)
Sequence (P54760 16-987): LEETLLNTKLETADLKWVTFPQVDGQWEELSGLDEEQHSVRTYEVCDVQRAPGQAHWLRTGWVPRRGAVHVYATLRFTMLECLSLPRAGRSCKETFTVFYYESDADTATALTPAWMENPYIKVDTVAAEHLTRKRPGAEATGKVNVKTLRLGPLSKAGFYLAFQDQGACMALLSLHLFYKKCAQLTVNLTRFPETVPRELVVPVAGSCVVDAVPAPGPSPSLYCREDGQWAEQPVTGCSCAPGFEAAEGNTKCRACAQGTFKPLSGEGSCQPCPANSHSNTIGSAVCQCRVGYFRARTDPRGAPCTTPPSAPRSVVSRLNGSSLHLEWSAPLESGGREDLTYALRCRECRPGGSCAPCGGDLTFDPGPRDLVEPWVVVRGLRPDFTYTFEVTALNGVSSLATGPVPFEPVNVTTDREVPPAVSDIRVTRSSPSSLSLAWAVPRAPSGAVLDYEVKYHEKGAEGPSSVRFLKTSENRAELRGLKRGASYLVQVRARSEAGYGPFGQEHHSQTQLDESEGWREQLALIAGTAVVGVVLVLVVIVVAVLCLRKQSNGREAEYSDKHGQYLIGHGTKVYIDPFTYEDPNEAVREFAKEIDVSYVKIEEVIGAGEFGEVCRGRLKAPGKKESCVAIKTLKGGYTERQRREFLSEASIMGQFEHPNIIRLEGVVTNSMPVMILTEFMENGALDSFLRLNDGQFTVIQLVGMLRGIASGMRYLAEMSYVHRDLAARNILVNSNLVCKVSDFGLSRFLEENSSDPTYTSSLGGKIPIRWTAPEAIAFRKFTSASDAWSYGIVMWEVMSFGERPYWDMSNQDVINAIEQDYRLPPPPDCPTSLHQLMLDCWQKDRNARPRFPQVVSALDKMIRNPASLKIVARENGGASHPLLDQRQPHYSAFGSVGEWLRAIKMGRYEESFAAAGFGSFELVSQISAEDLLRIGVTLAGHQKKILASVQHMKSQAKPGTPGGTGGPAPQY
Test readout: IC50 (nM)
One number for each entry, in nM.

q: Give me measured IC50, please, for this compound: Cc1ccc(C(=O)Nc2cccc(C(F)(F)F)c2)cc1Nc1nc(-c2cccnc2)nc2c1cnn2C [NVP‐BHG712]
a: 349

* * *

tested on: MEG-01 cells; assay: cells; design: MTT cell growth inhibition after 48 h; conditions: Homo sapiens, MEG-01, 48 h
Test readout: IC50
Dear colleague, please send the value followed by its unit.

q: Give the measured IC50 for `COc1cc2c(Nc3ccc(Br)cc3F)ncnc2cc1OCC1CCN(C)CC1`
a: 1.46 µM
